Reference for the values: patent US20080261923A1

experimental-target: human Pin1 (Homo sapiens, UniProt Q13526)
Sequence (Q13526 whole entry): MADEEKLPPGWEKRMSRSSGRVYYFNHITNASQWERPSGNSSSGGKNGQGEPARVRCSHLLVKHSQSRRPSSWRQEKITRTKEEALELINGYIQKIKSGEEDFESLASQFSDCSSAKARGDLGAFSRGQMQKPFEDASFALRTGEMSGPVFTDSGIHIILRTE

structure | IC50
CC(=O)N[C@@H](Cc1ccccc1)C(=O)N[C@@H](Cc1ccc(O)cc1)C(=O)N[C@H](/C=C1/CCC[C@H]1C(=O)N[C@@H](CCCNC(=N)N)C(N)=O)COP(=O)(O)O | 970 nM
